- Study target: CRBN truncate (318-426) (Homo sapiens (Human))
- Sequence (Q96SW2 318-426): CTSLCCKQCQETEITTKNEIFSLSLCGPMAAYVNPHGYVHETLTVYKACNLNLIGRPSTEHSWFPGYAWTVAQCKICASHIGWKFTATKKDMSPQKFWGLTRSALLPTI
- Assay method text: Measurement of molecular interactions using surface plasmon resonance (SPR), Biacore T200
- Condition set: 25° C., immobilized CRBN truncate, upper limit of measurement 200 μM
pKd: −log10 of the molar value.
pKd reference
Recorded endpoint: pKd

Molecule	Recorded endpoint	Measured
Cc1sc2c(c1C)C(c1ccc(Cl)cc1)=N[C@@H](CC(=O)NCCCCCCCNc1ccc(N3CCC(N4CCCC(=O)NC4=O)C3=O)cc1)c1nnc(C)n1-2 (stereo partly shown)	pKd	> 4.30
CCOC(=O)c1ccc2nc(N3CC4(CC(=O)N(C5CCCC(=O)NC5=O)C4=O)C3)sc2c1 (stereo not shown)	pKd	≤ 4.00
O=C1CCCC(n2nc(-c3ccccc3)ccc2=O)C(=O)N1 (stereo not shown)	pKd	4.00 to 4.30
CC(C)(C)OC(=O)c1ccnc(N2CC3(CC(=O)N(C4CCC(=O)NC4=O)C3=O)C2)c1 (stereo not shown)	pKd	4.00 to 4.30
Cc1sc2c(c1C)C(c1ccc(Cl)cc1)=N[C@@H](CC(=O)NCCCCCCCNC(=O)CN1CCC3(CCCC(=O)NC3=O)CC1=O)c1nnc(C)n1-2 (stereo partly shown)	pKd	4.00 to 4.30
CC(C)(C)OC(=O)NCCCNc1nccc(N2CC3(CC(=O)N(C4CCC(=O)NC4=O)C3=O)C2)n1 (stereo not shown)	pKd	≤ 4.00
CC(C)(C)OC(=O)c1ccc(N2CCC3(CCCC(=O)NC3=O)C2)cc1 (stereo not shown)	pKd	> 4.30
